Item-by-item account of hS1P1 cAMP pEC50
- MEASUREMENT TARGET: human sphingosine-1-phosphate receptor 1 (S1P1) (Homo sapiens (Human), UniProt P21453)
- Sequence (P21453 whole entry, looked up): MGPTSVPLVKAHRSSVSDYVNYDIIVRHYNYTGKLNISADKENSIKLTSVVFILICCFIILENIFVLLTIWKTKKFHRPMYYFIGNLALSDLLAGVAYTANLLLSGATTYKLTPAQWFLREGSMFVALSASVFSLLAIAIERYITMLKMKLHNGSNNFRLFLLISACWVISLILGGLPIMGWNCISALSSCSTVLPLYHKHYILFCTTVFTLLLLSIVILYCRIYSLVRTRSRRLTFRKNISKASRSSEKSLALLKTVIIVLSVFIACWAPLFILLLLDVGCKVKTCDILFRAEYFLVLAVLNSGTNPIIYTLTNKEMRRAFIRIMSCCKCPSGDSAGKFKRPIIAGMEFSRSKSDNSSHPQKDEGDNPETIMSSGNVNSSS
- RUN DESCRIPTION: Inhibition of cAMP production (HTRF cAMP HiRange), S1P1 CHO-K1 cells
- Type: cell-based
- RECORDED CONDITIONS: inhibition of cAMP production, S1P1 CHO-K1 cells
PROPERTY NAME: hS1P1 cAMP pEC50

>>> df
                                         mol  result
 0  FC(F)(F)c1cc(Br)ccc1-c1noc(-c2ccc3c(c2)nnn3C2CCCC2)n1    <6.5
 1    Cc1cccc2oc(-c3ccc4c(c3)nnn4CC(C)C)nc12    >6.5
 2  O=C1CC2(CCCC2)Oc2ccc(-c3nc(-c4ccncc4)no3)cc21    <6.5
 3  CC(C)Oc1ccc(-c2nc(-c3ccc4c(c3)nnn4C3CCCC3)no2)cc1C(F)(F)F    >6.5
 4  Cc1cccc(-c2nc(-c3ccc4c(c3)nnn4C3CCCC3)no2)c1    <6.5
 5  Cc1ccncc1-c1noc(-c2ccc3c(c2)nnn3C2CC2)n1    <6.5
 6  CCC1(CC)CC(=O)c2cc(-c3nc(-c4cnccc4C(F)(F)F)no3)ccc2O1    >6.5
 7  CC(C)n1nnc2cc(-c3noc(-c4ncccc4O)n3)ccc21    <6.5
 8  Cn1cnc2cc(-c3nnc(-c4ccc(NCC(F)F)c(C#N)c4)o3)ccc21    <6.5
 9    CC(C)n1nnc2cc(-c3nc4cccc(Br)c4o3)ccc21    <6.5
10  CC(C)n1ncc2cc(-c3nc(-c4cccc5c4OCCC5)no3)ccc21    >6.5
11  Cc1ccsc1-c1noc(-c2ccc3c(c2)nnn3CC2CC2)n1    <6.5
12  CC(C)n1nnc2cc(-c3noc(-c4ccccc4N(C)C)n3)ccc21    >6.5
13  Cc1ccccc1-c1noc(-c2ccc3c(c2)nnn3CC(C)C)n1    >6.5
14  CCCn1nnc2cc(-c3nc(-c4ccc(F)cc4)no3)ccc21    <6.5
15  CC(C)Nc1ccc(-c2ccc(-c3ccc4c(c3)nnn4C(C)C)cc2)cc1C#N    >6.5
16  CCC1(CC)CC(=O)c2cc(-c3nc(-c4ccc(NC(C)=O)cc4OC)no3)ccc2O1    >6.5
17  CC(C)n1nnc2cc(-c3noc(-c4ccccc4Br)n3)ccc21    >6.5

* * *

inhibition in vivo at 3 mg/kg: recorded values
- Tested on: paclitaxel induced peripheral neuropathy
- RUN DESCRIPTION: Reversal of allodynia induced by paclitaxel in mice (s.c. or p.o., von Frey frequency method)
- Assay type: in vivo, c57bl/6 mice
- RECORDED CONDITIONS: Mus musculus, po, 1 h, 3 mg/kg p.o., tested 60 min after dosing, read-out: Screen @ 3 mg/kg po (% MPE)
PROPERTY NAME: inhibition in vivo at 3 mg/kg

                                        mol                        measurement_target  result
0  CC(C)Nc1ccc(-c2nc(-c3ccc4nonc4c3)no2)cc1C#N  paclitaxel induced peripheral neuropathy   > 50%
1  N#Cc1cc(-c2nnc(-c3ccc4cnccc4c3)o2)ccc1NCC(F)F  paclitaxel induced peripheral neuropathy   > 50%
2  CC(C)Nc1ccc(-c2nnc(-c3cccc4[nH]cnc34)o2)cc1C#N  paclitaxel induced peripheral neuropathy   < 50%
3  CCC1(CC)CC(=O)c2cc(-c3nc(-c4ccc5c(c4)CCC(=O)N5)no3)ccc2O1  paclitaxel induced peripheral neuropathy   < 50%
4  N#Cc1cc(-c2nnc(-c3ccc4[nH]ncc4c3)o2)ccc1NCC(F)F  paclitaxel induced peripheral neuropathy   > 50%
5  N#Cc1cc(-c2nnc(-c3ccc4[nH]cnc4c3)o2)ccc1NC1CC1  paclitaxel induced peripheral neuropathy   < 50%
6  CCC1(CC)CC(=O)c2cc(-c3nc(-c4ccc(NC(C)=O)cc4OC)no3)ccc2O1  paclitaxel induced peripheral neuropathy   > 50%
7  COc1ccc(-c2noc(-c3ccc4c(c3)nnn4CC(C)(C)O)n2)c(C)c1  paclitaxel induced peripheral neuropathy   < 50%
